Source listed as patent US6291467A.

TARGET_OF_ASSAY: Dopamine D2 Receptor (Rattus norvegicus)
Sequence (P61169 whole entry): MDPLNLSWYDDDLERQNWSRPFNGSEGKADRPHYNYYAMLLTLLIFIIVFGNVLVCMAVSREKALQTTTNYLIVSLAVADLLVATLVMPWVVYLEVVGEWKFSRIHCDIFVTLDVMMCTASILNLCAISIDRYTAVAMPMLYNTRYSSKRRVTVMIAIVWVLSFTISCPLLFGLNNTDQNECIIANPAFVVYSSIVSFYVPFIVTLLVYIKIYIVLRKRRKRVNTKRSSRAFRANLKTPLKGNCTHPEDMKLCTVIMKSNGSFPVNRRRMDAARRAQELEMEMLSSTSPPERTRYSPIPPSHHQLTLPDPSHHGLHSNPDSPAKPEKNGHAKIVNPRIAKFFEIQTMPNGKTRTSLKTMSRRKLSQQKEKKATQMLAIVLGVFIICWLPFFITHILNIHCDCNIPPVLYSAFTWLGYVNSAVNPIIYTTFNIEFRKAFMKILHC
ASSAY_PROCEDURE: Dopamine D2 Receptor Binding Assay (displacement of [^3 H]raclopride)
RUN_CONDITIONS: rat striatum membrane, [^3 H]raclopride (1 nM), 25° C., an hour
Provide the recorded IC50 for the entries that follow.
Numbers only, in nM.

Each of the following entries comes with a recorded value; kindly state IC50 for each.
1. Nc1ncc(CCN2CCC(=Cc3ccccc3F)CC2)c(-c2ccc(F)cc2)n1
2. Fc1ccc(C=C2CCN(CCc3cn[nH]c3-c3ccc(F)cc3)CC2)cc1
3. O=C(c1ccc(F)cc1)C1CCN(CCc2sc(O)nc2-c2ccc(F)cc2)CC1

stdout:
[129, 152, 107]
